# target-system: UniProt P32240
# Sequence (P32240 whole entry): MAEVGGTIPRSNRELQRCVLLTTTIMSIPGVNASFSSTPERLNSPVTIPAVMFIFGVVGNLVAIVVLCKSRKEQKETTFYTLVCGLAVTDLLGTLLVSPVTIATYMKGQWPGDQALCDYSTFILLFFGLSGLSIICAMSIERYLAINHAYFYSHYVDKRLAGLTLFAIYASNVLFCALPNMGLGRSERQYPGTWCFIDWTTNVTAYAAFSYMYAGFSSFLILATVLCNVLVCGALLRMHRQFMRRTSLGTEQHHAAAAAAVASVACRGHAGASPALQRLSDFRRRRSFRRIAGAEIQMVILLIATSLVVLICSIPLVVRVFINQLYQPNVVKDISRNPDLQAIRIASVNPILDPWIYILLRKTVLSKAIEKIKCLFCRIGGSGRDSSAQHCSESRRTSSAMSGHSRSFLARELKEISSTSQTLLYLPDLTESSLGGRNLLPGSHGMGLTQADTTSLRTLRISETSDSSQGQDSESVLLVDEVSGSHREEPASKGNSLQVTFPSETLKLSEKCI
# assay-remarks: Effective concentration which increases intracellular c-AMP production in mouse Prostanoid EP4 receptor
Strictly below 0.04 µM in EC50: Fulfilled. Otherwise: Not fulfilled.

INSERT INTO assay_data (smiles_string, label_class) VALUES
  ('COCCCc1cccc(C[C@H](O)/C=C/[C@H]2[C@H](O)CC(=O)[C@@H]2SCCCSCC(=O)O)c1', 'Not fulfilled'),
  ('CCCCC[C@H](O)/C=C/[C@H]1[C@H](O)CC(=O)[C@@H]1SCCCOCC(=O)O', 'Fulfilled'),
  ('Cc1cccc(C[C@H](O)/C=C/[C@H]2[C@H](O)CC(=O)[C@@H]2SCCCSCC(=O)O)c1', 'Fulfilled'),
  ('COc1cccc(C[C@H](O)/C=C/[C@H]2[C@H](O)CC(=O)[C@@H]2SCCCSCC(=O)O)c1', 'Fulfilled'),
  ('CCCCC[C@H](O)/C=C/[C@H]1[C@H](O)CC(=O)[C@@H]1CSCCSCC(=O)O', 'Not fulfilled'),
  ('COCCc1cccc(C[C@H](O)/C=C/[C@H]2[C@H](O)CC(=O)[C@@H]2SCCCSCC(=O)O)c1', 'Fulfilled'),
  ('O=C(O)CSCCCS[C@H]1C(=O)C[C@@H](O)[C@@H]1/C=C/[C@@H](O)Cc1ccccc1', 'Fulfilled'),
  ('Cc1ccc(C[C@H](O)/C=C/[C@H]2[C@H](O)CC(=O)[C@@H]2SCCCSCC(=O)O)cc1', 'Not fulfilled'),
  ('COCc1cccc(C[C@H](O)/C=C/[C@H]2[C@H](O)CC(=O)[C@@H]2SCCCSCC(=O)O)c1', 'Fulfilled'),
  ('CCCOCc1cccc(C[C@H](O)/C=C/[C@H]2[C@H](O)CC(=O)[C@@H]2SCCCSCC(=O)O)c1', 'Fulfilled'),
  ('Cc1ccccc1C[C@H](O)/C=C/[C@H]1[C@H](O)CC(=O)[C@@H]1SCCCSCC(=O)O', 'Not fulfilled');

---

# target-system: Prostacyclin receptor (Homo sapiens)
# Sequence (P43119 whole entry): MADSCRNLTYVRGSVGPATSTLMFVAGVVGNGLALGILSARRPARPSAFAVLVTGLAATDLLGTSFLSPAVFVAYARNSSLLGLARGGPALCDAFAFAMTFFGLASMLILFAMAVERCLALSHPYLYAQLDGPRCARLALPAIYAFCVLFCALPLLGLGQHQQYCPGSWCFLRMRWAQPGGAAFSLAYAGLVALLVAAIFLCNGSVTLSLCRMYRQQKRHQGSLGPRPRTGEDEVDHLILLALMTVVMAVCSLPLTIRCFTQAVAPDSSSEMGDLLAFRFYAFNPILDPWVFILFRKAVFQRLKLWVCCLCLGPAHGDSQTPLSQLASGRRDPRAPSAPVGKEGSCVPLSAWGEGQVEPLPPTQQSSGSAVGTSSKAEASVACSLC
# assay-remarks: Evaluated for its competitive binding affinity towards human Prostanoid IP receptor in CHO cells
measurement-type: Ki

INSERT INTO results (smiles_string, target_system, measurement_type, result) VALUES
  ('CCOCc1cccc(C[C@H](O)/C=C/[C@H]2[C@H](O)CC(=O)[C@@H]2SCCCSCC(=O)O)c1', 'Prostacyclin receptor (Homo sapiens)', 'Ki', '> 10 µM'),
  ('CCCCC[C@H](O)/C=C/[C@H]1[C@H](O)CC(=O)[C@@H]1SCCCCCC(=O)O', 'Prostacyclin receptor (Homo sapiens)', 'Ki', '0.87 µM'),
  ('CSCc1cccc(C[C@H](O)/C=C/[C@H]2[C@H](O)CC(=O)[C@@H]2SCCCSCC(=O)O)c1', 'Prostacyclin receptor (Homo sapiens)', 'Ki', '> 10 µM'),
  ('Cc1cccc(C[C@H](O)/C=C/[C@H]2[C@H](O)CC(=O)[C@@H]2SCCCSCC(=O)O)c1', 'Prostacyclin receptor (Homo sapiens)', 'Ki', '> 10 µM'),
  ('COc1cccc(C[C@H](O)/C=C/[C@H]2[C@H](O)CC(=O)[C@@H]2SCCCSCC(=O)O)c1', 'Prostacyclin receptor (Homo sapiens)', 'Ki', '> 10 µM'),
  ('CCCCC[C@H](O)/C=C/[C@H]1[C@H](O)CC(=O)[C@@H]1SCCCOCC(=O)O', 'Prostacyclin receptor (Homo sapiens)', 'Ki', '0.51 µM'),
  ('CCCCC[C@H](O)/C=C/[C@H]1[C@H](O)CC(=O)[C@@H]1SCCSCCC(=O)O', 'Prostacyclin receptor (Homo sapiens)', 'Ki', '> 10 µM'),
  ('COCCc1cccc(C[C@H](O)/C=C/[C@H]2[C@H](O)CC(=O)[C@@H]2SCCCSCC(=O)O)c1', 'Prostacyclin receptor (Homo sapiens)', 'Ki', '> 10 µM'),
  ('Cc1ccc(C[C@H](O)/C=C/[C@H]2[C@H](O)CC(=O)[C@@H]2SCCCSCC(=O)O)cc1', 'Prostacyclin receptor (Homo sapiens)', 'Ki', '> 10 µM'),
  ('COCCCc1cccc(C[C@H](O)/C=C/[C@H]2[C@H](O)CC(=O)[C@@H]2SCCCSCC(=O)O)c1', 'Prostacyclin receptor (Homo sapiens)', 'Ki', '> 10 µM'),
  ('Cc1ccccc1C[C@H](O)/C=C/[C@H]1[C@H](O)CC(=O)[C@@H]1SCCCSCC(=O)O', 'Prostacyclin receptor (Homo sapiens)', 'Ki', '> 10 µM');

---

# target-system: UniProt Q62053
# Sequence (Q62053 whole entry): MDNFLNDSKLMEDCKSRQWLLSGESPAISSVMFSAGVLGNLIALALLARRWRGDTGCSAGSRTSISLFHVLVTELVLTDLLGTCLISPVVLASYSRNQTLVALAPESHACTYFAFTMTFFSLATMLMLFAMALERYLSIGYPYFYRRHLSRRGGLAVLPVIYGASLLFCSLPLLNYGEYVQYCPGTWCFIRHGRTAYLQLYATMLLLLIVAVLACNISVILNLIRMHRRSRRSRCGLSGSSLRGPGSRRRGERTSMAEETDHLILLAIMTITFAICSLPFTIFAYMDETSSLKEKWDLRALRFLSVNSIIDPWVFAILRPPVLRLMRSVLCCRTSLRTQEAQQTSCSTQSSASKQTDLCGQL
# assay-remarks: Evaluated for its competitive binding affinity towards mouse Prostanoid EP2 receptor in CHO cells expressing prostanoid receptor
# Ki annotations
measurement-type: Ki

INSERT INTO assay_data (smiles_string, target_system, result) VALUES
  ('Cc1ccc(C[C@H](O)/C=C/[C@H]2[C@H](O)CC(=O)[C@@H]2SCCCSCC(=O)O)cc1', 'UniProt Q62053', '1.2 µM'),
  ('CCOCc1cccc(C[C@H](O)/C=C/[C@H]2[C@H](O)CC(=O)[C@@H]2SCCCSCC(=O)O)c1', 'UniProt Q62053', '> 10 µM'),
  ('COCCCc1cccc(C[C@H](O)/C=C/[C@H]2[C@H](O)CC(=O)[C@@H]2SCCCSCC(=O)O)c1', 'UniProt Q62053', '> 10 µM');
